Values compiled from paper PMC9352680.

study target: T1, PUF4 RNA-binding domain (Saccharomyces cerevisiae, UniProt P25339 537-888)
T1 sequence: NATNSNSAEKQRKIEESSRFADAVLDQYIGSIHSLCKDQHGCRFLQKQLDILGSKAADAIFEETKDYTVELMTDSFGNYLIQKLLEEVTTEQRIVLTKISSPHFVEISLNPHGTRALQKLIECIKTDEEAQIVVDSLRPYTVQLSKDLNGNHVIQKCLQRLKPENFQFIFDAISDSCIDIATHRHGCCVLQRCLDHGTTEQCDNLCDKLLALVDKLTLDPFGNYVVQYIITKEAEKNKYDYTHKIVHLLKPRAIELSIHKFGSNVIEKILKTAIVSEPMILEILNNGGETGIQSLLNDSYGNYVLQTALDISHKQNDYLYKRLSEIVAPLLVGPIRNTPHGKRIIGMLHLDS
experimental details: Mg; RNA-MaP; 20 mM Na-HEPES pH 7.4, 30 mM KOAc, 0.75 mM MgCl2, 0.1% Tween-20, 5% glycerol, 0.1 mg/mL BSA, 2 mM DTT; 25 C; 0.0125-409.6 nM protein
conditions used: tags: N-His6-TEV cleaved; C-SNAP kept, Cy3B-labelled; label: tethered on chip by stalled RNA polymerase
// classify(record): look up Kd in ranges class 1 (below 10 nM), class 2 (10 nM to below 90 nM), class 3 (90 nM or more)

{"binder": "Ib_S2_P5E.1_K5.1_C5.1_H5.1_[A4G]_A5.1_[T6A]_F5.1_T5.1 (ssRNA) RNA: UUUGAUUAAUAUGAUAUCGUUCUUUCUUGUGUAAUUAUUCUUUCUCGAUAUCAUAUUAAUCUUU", "assigned category": "class 2"}
{"binder": "UCUCUUUGUAAGCUAUCUCUU (ssRNA) [Ic_S1_P4E.1_K4.1_C4.1_H4.1_A4.1_[T5A]_[A6G]_[T7C]_F4.1_T4.1]", "assigned category": "class 2"}
{"binder": "UCUCUUUGUACUCGCUCUCUU (ssRNA) [Ic_S1_P4E.1_K4.1_C4.1_H4.1_A4.1_[T5C]_[A6T]_[T7C]_F4.1_[T8G]_[A9C]_T4.1]", "assigned category": "class 3"}
{"binder": "Id_ii_S4_P4E.4_K4.3_C4.2_[T-1C]_H4.3_A4.1_F4.1_T4.2_[G10A] (ssRNA) RNA: UUUGACAACUGAUCGUUCUUUCUCCACACUAUUAAUUUCUUUCUCGAUCAGUUGUCUUU", "assigned category": "class 3"}
{"binder": "UCUCUUUGUUUUAAUAUCUCUU (ssRNA) [Ib_S1_P5E.1_K5.1_C5.1_H5.1_[A4T]_A5.1_F5.1_[T8A]_T5.1]", "assigned category": "class 2"}
{"binder": "Id_ii_S2_P3E.2_K3.1_C3.2_[C-2T]_[T-1A]_H3.1_A3.1_F3.1_T3.2_[A10T] (ssRNA) RNA: UUUGAUUAAUAUGAUAUCGUUCUUUCUUAUGUAUAUAUUUUCUUUCUCGAUAUCAUAUUAAUCUUU", "assigned category": "class 1"}
{"binder": "Ic_S4_P5E.1_K5.1_C5.1_H5.1_A5.1_[T6C]_F5.1_[T8A]_[T9A]_[A10C]_T5.1 (ssRNA) RNA: UUUGACAACUGAUCGUUCUUUCUUGUAUCAAACUUCUUUCUCGAUCAGUUGUCUUU", "assigned category": "class 3"}
{"binder": "Id_ii_S4_P3E.4_K3.3_C3.2_[T-1A]_H3.3_A3.1_F3.1_T3.2_[T9C]_[A10C] (ssRNA) RNA: UUUGACAACUGAUCGUUCUUUCUCAACACUAUACCUUCUUUCUCGAUCAGUUGUCUUU", "assigned category": "class 3"}
{"binder": "UCUCUUUGUUGUAUAUUAGUUCUCUU (ssRNA) [Id_iii_S1_P4E.5_K4.1_C4.3_[C-2G]_H4.1_A4.1_F4.1_T4.2]", "assigned category": "class 1"}
{"binder": "UCUCUUUGCUCUUAUUAUUAUCUCUU (ssRNA) [Ie_S1_P5E.1_K5.1_C5.1_H5.1_[+2CTCT]_A5.1_F5.1_T5.1]", "assigned category": "class 3"}
{"binder": "UCUCUUCGUGUAUUAUUAACUCUCUU (ssRNA) [Id_ii_S1_P5E.2_K5.1_C5.2_[T-1G]_H5.1_A5.1_F5.1_T5.2_[T11A]_[A12C]]", "assigned category": "class 2"}
